Measurement Notes: Particle size testing by laser diffraction (Malvern MS2000 laser particle size analyzer, dispersant water)
Format: physicochemical
Experimental: The particle size distribution and characteristics of the ultraviolet absorber described herein, such as the minimum particle size d(0.1), the d(0.9) and the consistency are determined by a laser diffraction method, and determination conditions are as follows: • particle size analyzer: Malvern MS2000 laser particle size analyzer; • name of an injector: Hydro 2000MU (A); • analysis mode: general; • particle size range: 0.02-2000 µm; • name of a dispersant: water.
Reported difference between D[3,2] and D[4,3] values for the following compounds.
Unit µm implied. Number only.

{"Compound": "CCCCCCOC(=O)c1ccccc1C(=O)c1ccc(N(CC)CC)cc1O [Example 3]", "Quantity Unit": "µm", "Assay Result": 17.543}
{"Compound": "CCCCCCOC(=O)c1ccccc1C(=O)c1ccc(N(CC)CC)cc1O [Example 5]", "Quantity Unit": "µm", "Assay Result": 21.881}
{"Compound": "CCCCCCOC(=O)c1ccccc1C(=O)c1ccc(N(CC)CC)cc1O [Example 2]", "Quantity Unit": "µm", "Assay Result": 8.865}
{"Compound": "CCCCCCOC(=O)c1ccccc1C(=O)c1ccc(N(CC)CC)cc1O [Comparative Example 1]", "Quantity Unit": "µm", "Assay Result": 128.616}
{"Compound": "CCCCCCOC(=O)c1ccccc1C(=O)c1ccc(N(CC)CC)cc1O [Example 4]", "Quantity Unit": "µm", "Assay Result": 11.215}

Kindly review the next compound as well.
Identify difference between D[3,2] and D[4,3] associated with the compound CCCCCCOC(=O)c1ccccc1C(=O)c1ccc(N(CC)CC)cc1O [Example 1]
11.727

====

Listing: Specific surface area of selected compounds
Measurement Notes: Particle size testing by laser diffraction (Malvern MS2000 laser particle size analyzer, dispersant water)
Format: physicochemical
Cond: laser diffraction, dispersant water
Numeric only. Scale: m^2/g

{"Compound": "CCCCCCOC(=O)c1ccccc1C(=O)c1ccc(N(CC)CC)cc1O [Example 1]", "Assay Result": 0.331}

State its Specific surface area for this compound: CCCCCCOC(=O)c1ccccc1C(=O)c1ccc(N(CC)CC)cc1O [Example 3]
0.295

Tell me measured Specific surface area for CCCCCCOC(=O)c1ccccc1C(=O)c1ccc(N(CC)CC)cc1O [Comparative Example 1] please.
0.258

Quick one: give measured Specific surface area for CCCCCCOC(=O)c1ccccc1C(=O)c1ccc(N(CC)CC)cc1O [Example 5]
0.281

State, in one line, measured Specific surface area of CCCCCCOC(=O)c1ccccc1C(=O)c1ccc(N(CC)CC)cc1O [Example 2]
0.325

Answer with the recorded Specific surface area for the compound listed here: CCCCCCOC(=O)c1ccccc1C(=O)c1ccc(N(CC)CC)cc1O [Example 4]
0.284

====

Measurement Notes: Particle size testing by laser diffraction (Malvern MS2000 laser particle size analyzer, dispersant water)
Format: physicochemical
Cond: laser diffraction, dispersant water
Experimental Readout: Volume-average particle size D[4,3] (µm)
Write the value in µm as a bare number.

Solved cases below.
{"Molecule": "CCCCCCOC(=O)c1ccccc1C(=O)c1ccc(N(CC)CC)cc1O [Example 4]", "Quantity Unit": "µm", "Assay Result": 32.364}
{"Molecule": "CCCCCCOC(=O)c1ccccc1C(=O)c1ccc(N(CC)CC)cc1O [Comparative Example 1]", "Quantity Unit": "µm", "Assay Result": 151.879}

For CCCCCCOC(=O)c1ccccc1C(=O)c1ccc(N(CC)CC)cc1O [Example 2] , write its Volume-average particle size D[4,3].
27.328

Name the recorded Volume-average particle size D[4,3] of the item CCCCCCOC(=O)c1ccccc1C(=O)c1ccc(N(CC)CC)cc1O [Example 3] in your answer.
37.899

Write down Volume-average particle size D[4,3] measured for item CCCCCCOC(=O)c1ccccc1C(=O)c1ccc(N(CC)CC)cc1O [Example 5]
43.271

Identify measured Volume-average particle size D[4,3] corresponding to CCCCCCOC(=O)c1ccccc1C(=O)c1ccc(N(CC)CC)cc1O [Example 1]
29.840
